Molecular target: human recombinant CYP3A4 (Homo sapiens)
Sequence (P08684 whole entry): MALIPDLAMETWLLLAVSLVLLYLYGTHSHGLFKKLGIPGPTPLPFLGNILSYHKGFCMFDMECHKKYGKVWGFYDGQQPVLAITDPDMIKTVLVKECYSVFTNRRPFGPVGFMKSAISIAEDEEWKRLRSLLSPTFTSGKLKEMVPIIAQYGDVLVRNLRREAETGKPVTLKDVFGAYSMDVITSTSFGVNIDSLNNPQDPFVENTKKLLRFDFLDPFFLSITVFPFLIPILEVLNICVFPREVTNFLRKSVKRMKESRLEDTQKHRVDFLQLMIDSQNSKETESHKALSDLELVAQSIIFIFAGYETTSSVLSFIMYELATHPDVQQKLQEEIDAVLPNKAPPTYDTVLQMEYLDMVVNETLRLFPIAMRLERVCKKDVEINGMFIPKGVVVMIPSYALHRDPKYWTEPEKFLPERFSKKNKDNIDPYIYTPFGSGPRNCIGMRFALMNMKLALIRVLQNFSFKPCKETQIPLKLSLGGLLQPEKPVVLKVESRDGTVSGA
Assay: Vivid CYP3A4 red screening kit inhibition assay
Details: CYP3A4 In Vitro IC50, CYP3A4 BACULOSOMES, substrate Vivid BOMR, 3.125–200 μM; n.i. = no inhibition
Method: Human CYP1A2 and CYP3A4 activities were determined using the Vivid™ CYP1A2 blue screening kit and Vivid™ CYP3A4 red screening kit according to the manufacturer’s instructions. […] The plate was immediately transferred into the fluorescent plate reader and read in 1 min intervals for 60 min at Ex 415 nm/Em 460 nm (CYP1A2) and Ex 550 nm/Em 590 nm (CYP3A4), respectively. […]
property.measured: IC50 (µM)
Provide only the numeric value, understood in µM.

Query string: Entry CC(=O)O[C@H]1CC(C)(C)C(=C=C/C(C)=C/C=C/C(C)=C/C=C/C=C(C)/C=C/C=C(\C)C(=O)C[C@@]23O[C@]2(C)C[C@@H](O)CC3(C)C)[C@](C)(O)C1 needs its IC50 filled in; supply it.
Result string: 24.4
